Below, each of the molecules is paired with its reported Ki value.
# MEASURED_TARGET: hMC4R (Homo sapiens (Human))
# Sequence (P32245 whole entry): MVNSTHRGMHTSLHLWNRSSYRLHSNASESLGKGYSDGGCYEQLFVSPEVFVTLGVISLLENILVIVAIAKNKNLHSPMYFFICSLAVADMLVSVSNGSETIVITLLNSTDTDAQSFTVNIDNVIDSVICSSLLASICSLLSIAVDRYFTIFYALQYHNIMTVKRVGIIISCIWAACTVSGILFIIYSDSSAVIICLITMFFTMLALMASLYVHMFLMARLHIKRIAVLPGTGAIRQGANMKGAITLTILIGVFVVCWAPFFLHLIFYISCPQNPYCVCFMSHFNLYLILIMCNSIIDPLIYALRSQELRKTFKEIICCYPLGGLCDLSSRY
# METHOD_DESCRIPTION: In vitro binding affinity assay using hMC4R (radioligand competition binding, CHO cell membranes)
# RECORDED_CONDITIONS: competition with [125I]-(Nle4, D-Phe7)-α-MSH 0.5 nM; Ki from IC50 by Cheng-Prusoff; read-out: Ki (nM) geometric mean
# Procedure: The binding affinity of test compounds at the α-melanocyte-stimulating hormone receptor (hMC4R) was assessed using a radioligand competition binding assay. […] Compounds were solubilized in 100% dimethyl sulfoxide (DMSO) to a concentration of 30 mM. […] The exact concentration of radioligand used for each experiment was determined by liquid scintillation counting and adjusted if necessary. […] The raw data (expressed as counts per minute) were analyzed using ActivityBase (IDBS Data Management Software). […]
The response must be a number in nM with no trailing unit.

MOLECULE: COc1cc([C@@H](C)C(=O)N2CC[C@H](Nc3ccc(-c4nc(C(F)F)n(C)n4)c(C)n3)C2)nc(C)n1 (single isomer, unassigned) [Example 41B]
RESULT_UNIT: nM
Ki: 2

INPUT: Fill in: Ki of COc1cc([C@@H](C)C(=O)N2CC[C@H](Nc3ccc(-c4ncccn4)c(C)n3)C2)c(Cl)cn1 [Example 6] is ___
OUTPUT: 1.1

INPUT: Same question, COc1cc(OC)cc([C@@H](C)C(=O)N2CC[C@H](Nc3ccc(-c4nc(C(F)(F)F)n(C)n4)c(C)n3)C2)c1 [Example 39] this time
OUTPUT: 0.28

INPUT: Same question, COc1cc([C@@H](C)C(=O)N2CC[C@H](Nc3ccc(-c4nc(C(C)(F)F)n(C)n4)c(C)n3)C2)c(Cl)cn1 (single isomer, unassigned) [Example 37B] this time
OUTPUT: 0.53

INPUT: Same question, Cc1nc(N[C@H]2CCN(C(=O)Cc3ccc(F)cc3)C2)ccc1-c1cc(C)n(C)n1 [Example 32] this time
OUTPUT: 5.5

INPUT: Same question, Cc1nc(N[C@H]2CCN(C(=O)C(F)(F)c3ccc(Cl)cc3)C2)ccc1-c1cn(C)c(C(F)F)n1 [Example 23] this time
OUTPUT: 1.1

INPUT: Same question, Cc1nc(N[C@H]2CCN(C(=O)C3(c4ccccc4)CC3(F)F)C2)ccc1-c1cn(C)cn1 (stereo partly shown) [Example 35] this time
OUTPUT: 0.95

INPUT: Same question, COc1cc([C@@H](C)C(=O)N2CC[C@H](Nc3ccc(-c4nc(C(F)(F)F)n(C)n4)c(C)n3)C2)c(F)cn1 [Example 2] this time
OUTPUT: 1.2

INPUT: Same question, COc1cc([C@@H](C)C(=O)N2CC[C@H](Nc3ccc(-c4nc(C(F)F)n(C)n4)c(C)n3)C2)ccn1 (single isomer, unassigned) [Example 33A] this time
OUTPUT: 1100

INPUT: Same question, COc1cc([C@@H](C)C(=O)N2CC[C@H](Nc3ccc(-c4nnn(C)n4)c(C)n3)C2)c(Cl)cn1 [Example 1] this time
OUTPUT: 0.88

INPUT: Same question, COc1cccc([C@@H](C)C(=O)N2CC[C@H](Nc3ccc(-c4cn(C)c(C(C)(F)F)n4)c(C)n3)C2)c1 (single isomer, unassigned) [Example 14B] this time
OUTPUT: 0.45

INPUT: Same question, COc1cc([C@@H](C)C(=O)N2CC[C@H](Nc3ccc(-c4nc(C(F)F)n(C5CC5)n4)c(C)n3)C2)c(F)cn1 [Example 8] this time
OUTPUT: 1.2
